In this section we review reported KIM127 (Expression relative to IgG4) values for a set of binders.
Target: human Mac-1 (integrin αMβ2, CD11b/CD18) (human, UniProt P11215 17-1152; P05107 23-769)
Assay: flow cytometry, HEK293/Mac-1 cells, PBS (Mock), 10 µg/ml of this antibody; binding of reporter mAb KIM127 read
test-readout: KIM127 (Expression relative to IgG4)

{"columns": ["binder", "test-readout", "value"],
 "data": [
  ["anti-Mac-1 antibody clone 24F09 (antibody, human IgG4, V domains shown, also called 24F9) VH: EVQLVESGGGLVQPGGSLRLSCAASGFTFSSAWMSWVRQAPGKGLEWVSTIYWSGSEINYADSVKGRFTISRDNSKNTLYLQMNSLRAEDTAVYYCARSFASGESAMDVWGQGTLVTVSS VL: DIQMTQSPSSLSASVGDRVTITCRASQSISNYLAWYQQKPGKAPKLLIYDASNLQSGVPSRFSGSGSGTDFTLTISSLQPEDFATYYCQQYYSSPPTFGQGTKVEIK", "KIM127 (Expression relative to IgG4)", "2.05 relative to IgG4"],
  ["anti-Mac-1 antibody clone DF4M-31 (antibody, human IgG4, V domains shown) VH: EVQLVESGGGLVQPGGSLRLSCAASGFTFTSATMSWVRQAPGKGLEWVSIISPGGSETYYADSVKGRFTISRDNSKNTLYLQMNSLRAEDTAVYYCARGGDYPSYYMDPWGQGTLVTVSS VL: DIQMTQSPSSLSASVGDRVTITCRASQSISNYLAWYQQKPGKAPKLLIYGTSSLQSGVPSRFSGSGSGTDFTLTISSLQPEDFATYYCQQGHQWPWTFGQGTKVEIK", "KIM127 (Expression relative to IgG4)", "1.13 relative to IgG4"]
]}
